measured.endpoint: IC50 (µM)
Express it in µM; write the number only.

Problem: GET /values?readout=IC50&system=CYP3A4 (Homo sapiens, UniProt P08684)&item= COc1cc2ccc(C(O)(c3ccncn3)C(C)C)cc2cc1OC (stereo not shown)
Result: 18

meta.source: patent US9056855B2
